The values you see were collected from ChEMBL document CHEMBL4513216.

# Lookup of reported INHIBITION keyed by entry
Test system: Plasmodium falciparum
assayInfo: Screen against P. falciparum Asexual Blood Stage (ABS), at 5uM
Type: functional, Dd2
experimentalSetup: tested at 5 uM
The campaign covered roughly 65,000 compounds. About 2,100 (3.2%) showed an effect of 50% or more. The median lay at about -52%. Shown is part of a subset that was picked to be rich in strong results.
# output: numeric value plus its unit

CN(C)CC(Nc1nc(N)nc2c1CCNCC2)c1ccccc1 (configuration not stated)	-104%
O=C(CCc1ccccc1F)NS(=O)(=O)c1ccc2c(c1)OCCO2	-17.8%
CCOc1ccc(C(=O)CCC(=O)N(C)Cc2nc(C)c[nH]2)cc1C	-27.6%
Cc1ccc(=O)n(CC2(O)CCN(Cc3c(F)cccc3F)CC2)n1	-42.4%

For CCc1ccccc1OCC(=O)Nc1ccnc(OCCN(C)C)c1 , what is its reported INHIBITION? 59.7%

Okay, and CCS(=O)(=O)CCNc1nc(C2CCCC2)nc2c1cnn2C ? -115%

Okay, and COc1ccccc1OCC(=O)NS(=O)(=O)c1ccc(Br)s1 ? -26.8%

Okay, and Cn1ncc2c(NCCn3cccc3)nc(C3CCCC3)nc21 ? 9.86%

Okay, and c1ccc(OCCNC2=NCCCN2)cc1 ? 16.3%

Okay, and CNCCCNc1nc(C2CCCC2)nc2c1cnn2C ? -38.7%

Okay, and CCOCc1ccc(CNC2=NCCCN2)cc1 ? 55.7%

Okay, and CN(C)c1ccc(CNC2=NCCCN2)cc1 ? -56.7%
